tested on: THRa:RXRa (NR concentration 90 nM, RXRa partner concentration 90 nM); test: PBM binding z-score (relative to random genomic background probes); higher = stronger binding; sequences stand for … in GC…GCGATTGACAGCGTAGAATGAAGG
Listing of recorded PBM binding z-score by entry.
// print number alone

As a guide, the following entries are already answered.
chain_sequence | PBM binding z-score
CTGACTGGGGCATAAGGTTACCATAAGCCAGCCC | 2.42
CCTAGCAGGCCAATCTGGGTCACTCAAGGCTTGA | 3.9
CCGTACGGGTCACTGACAGGTTATAGCATTTGGA | 2.97
CAAACTAGGTCAGCGGAAGGTCAAAGTCCGCATG | 4.05
CAAACTCGGTCACAGAGGTCAAAGTCCGTGCGTA | 4.04
ACAGACAGATGATGAAGGTAACTCAGGCTATCAT | 0.742
TCGAGTAGATTAGTCGGGGCATTCAGCCAACATA | -0.269
TCAGTCAGGTGAAGGTAACTCAGGTACGCAGTCG | 2.32

Fill in: PBM binding z-score of `CGAACTAGGTCATTGACAGGACACTGAATAGTAA` is ___
3.03

Would you mind doing `TAGCCTAGGTCATTCAGGGGCCAGTATAGAAAGC` as well?
3.45

Would you mind doing `TAGCCTAGGTCATTGGGCCAGTATTGTACGCATC` as well?
2.88

Would you mind doing `TCTATTACTTGAAGGGCAACCGACGAGTCCGTTT` as well?
0.289

Would you mind doing `CAAACTAGGTCGCGAAAGGTCAAAGTCGAATGAC` as well?
4.79

Would you mind doing `ATCTCTAGGTAATAGTTCAGTGAATCCCGAGGAT` as well?
0.745

###

tested on: RARb:RXRa (NR concentration 270 nM, RXRa partner concentration 90 nM); experiment: PBM binding z-score (relative to random genomic background probes); higher = stronger binding; sequences stand for … in GC…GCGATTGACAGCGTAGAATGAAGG
Listing of recorded PBM binding z-score by entry.
// print number alone

As a guide, the following entries are already answered.
chain_sequence | system | PBM binding z-score
CAAACGAGGGCATGAGTTGATAGCAAATGCCGAT | RARb:RXRa (NR concentration 270 nM, RXRa partner concentration 90 nM) | 2.24
CCTTACGGGCCACTCCAGGTTATAGCATCGGAGT | RARb:RXRa (NR concentration 270 nM, RXRa partner concentration 90 nM) | 0.496
CAAACTAGGTCAAGAGGTCAAAGTCCGCTTCCCG | RARb:RXRa (NR concentration 270 nM, RXRa partner concentration 90 nM) | 5.53
CGAACTAGGTCAGCCAGGACAGTGAATACATTGA | RARb:RXRa (NR concentration 270 nM, RXRa partner concentration 90 nM) | 3.45
TCTATTAGTTGATTAGGGCAACGGAAACAGCGGA | RARb:RXRa (NR concentration 270 nM, RXRa partner concentration 90 nM) | 0.963

Fill in: PBM binding z-score of `GCTTGTAGATCAAGGTTAAAAAAGACTAAGCTAA` is ___
0.688

Would you mind doing `GCTAGTTGGTCAGTAAAAGGTCACACATCGGTCG` as well?
4.26

Would you mind doing `CAAACTAGGTCAAGGTCAAGGTCGGTTTGTGCCA` as well?
5.2

Would you mind doing `GCTTGTAGATCAAGGTTAAGAAGGACTAAGCTAA` as well?
0.923
